target: DNA topoisomerase 2-alpha (Homo sapiens, UniProt P11388)
Sequence (P11388 whole entry): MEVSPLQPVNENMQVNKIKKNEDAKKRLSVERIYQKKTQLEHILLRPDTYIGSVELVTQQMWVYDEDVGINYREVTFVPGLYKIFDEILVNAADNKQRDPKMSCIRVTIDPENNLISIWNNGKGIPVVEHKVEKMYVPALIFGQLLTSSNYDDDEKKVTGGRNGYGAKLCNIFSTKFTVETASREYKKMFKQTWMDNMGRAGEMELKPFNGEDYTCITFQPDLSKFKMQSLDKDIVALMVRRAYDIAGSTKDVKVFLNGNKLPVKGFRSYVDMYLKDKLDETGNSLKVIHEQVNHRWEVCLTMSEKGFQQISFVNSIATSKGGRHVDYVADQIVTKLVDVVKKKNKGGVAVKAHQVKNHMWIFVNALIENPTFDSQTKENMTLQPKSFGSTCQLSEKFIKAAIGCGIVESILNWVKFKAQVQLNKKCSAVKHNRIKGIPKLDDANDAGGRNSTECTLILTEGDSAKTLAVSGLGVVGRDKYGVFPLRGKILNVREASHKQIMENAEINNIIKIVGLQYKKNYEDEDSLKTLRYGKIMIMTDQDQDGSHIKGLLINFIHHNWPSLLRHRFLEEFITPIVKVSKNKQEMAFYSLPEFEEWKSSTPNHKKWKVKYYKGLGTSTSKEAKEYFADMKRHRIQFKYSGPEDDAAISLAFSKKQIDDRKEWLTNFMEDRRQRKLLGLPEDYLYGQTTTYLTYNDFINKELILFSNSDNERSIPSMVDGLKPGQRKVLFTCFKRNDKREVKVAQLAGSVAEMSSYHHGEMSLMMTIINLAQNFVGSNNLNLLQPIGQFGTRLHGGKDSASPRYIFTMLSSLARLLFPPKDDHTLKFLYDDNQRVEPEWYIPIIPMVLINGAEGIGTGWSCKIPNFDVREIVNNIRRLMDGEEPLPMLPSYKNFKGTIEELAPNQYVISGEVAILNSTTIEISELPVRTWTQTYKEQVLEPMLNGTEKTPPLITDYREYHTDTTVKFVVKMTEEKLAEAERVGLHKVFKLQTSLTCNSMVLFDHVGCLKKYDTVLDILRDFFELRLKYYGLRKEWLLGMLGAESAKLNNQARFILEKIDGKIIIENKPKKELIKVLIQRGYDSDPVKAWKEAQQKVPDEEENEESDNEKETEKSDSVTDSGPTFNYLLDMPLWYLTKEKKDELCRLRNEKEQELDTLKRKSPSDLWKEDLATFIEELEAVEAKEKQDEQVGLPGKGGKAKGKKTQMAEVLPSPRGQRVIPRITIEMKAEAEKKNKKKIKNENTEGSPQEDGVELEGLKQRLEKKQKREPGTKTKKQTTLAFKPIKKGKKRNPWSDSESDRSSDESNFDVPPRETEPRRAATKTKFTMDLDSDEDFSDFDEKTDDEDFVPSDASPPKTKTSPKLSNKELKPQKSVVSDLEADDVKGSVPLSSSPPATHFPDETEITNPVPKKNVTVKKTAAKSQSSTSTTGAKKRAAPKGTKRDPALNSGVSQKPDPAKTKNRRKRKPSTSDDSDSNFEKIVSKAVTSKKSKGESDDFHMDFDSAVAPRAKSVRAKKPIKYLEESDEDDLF
VALUE_TYPE: IC50 (µM)

1: CC1COC2=CC(=O)C(=O)c3cccc1c32 (configuration not stated)
2: O=C1C=C2OCC(O)(Cc3ccccc3)c3cccc(c32)C1=O (configuration not stated)
Lookup: // returns 1 or 2 , whichever has the lower IC50 Give the label under which the chosen entry appears.
Found: 1

----------
target: DNA topoisomerase 1 (Homo sapiens) (UniProt P11387); test: Inhibition of human topoisomerase 1-mediated relaxation of supercoiled pBR322 DNA at 250 uM after 30 mins by agarose gel electrophoresis
Sequence (P11387 whole entry): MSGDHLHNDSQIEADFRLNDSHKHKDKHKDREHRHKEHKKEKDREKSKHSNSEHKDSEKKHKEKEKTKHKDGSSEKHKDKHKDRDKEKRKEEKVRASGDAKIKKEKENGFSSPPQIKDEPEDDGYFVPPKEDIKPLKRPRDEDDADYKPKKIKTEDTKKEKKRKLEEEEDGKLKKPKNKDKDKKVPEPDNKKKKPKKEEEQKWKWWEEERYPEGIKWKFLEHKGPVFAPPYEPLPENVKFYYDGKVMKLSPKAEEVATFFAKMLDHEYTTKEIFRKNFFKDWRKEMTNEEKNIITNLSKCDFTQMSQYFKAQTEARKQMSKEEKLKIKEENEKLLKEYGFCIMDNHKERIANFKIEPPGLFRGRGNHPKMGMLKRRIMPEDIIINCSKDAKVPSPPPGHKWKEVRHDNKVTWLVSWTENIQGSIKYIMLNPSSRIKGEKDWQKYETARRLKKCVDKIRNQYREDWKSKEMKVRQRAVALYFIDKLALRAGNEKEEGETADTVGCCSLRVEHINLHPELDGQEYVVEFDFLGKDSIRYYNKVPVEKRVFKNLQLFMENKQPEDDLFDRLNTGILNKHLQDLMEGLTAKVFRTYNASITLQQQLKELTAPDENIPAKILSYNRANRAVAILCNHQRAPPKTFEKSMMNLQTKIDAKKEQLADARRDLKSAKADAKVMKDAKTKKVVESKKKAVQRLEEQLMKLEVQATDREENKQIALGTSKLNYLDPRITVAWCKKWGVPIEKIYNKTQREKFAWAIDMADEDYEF
The source made the active and inactive calls. The calls are words filed in the database; no cut-off is given here.
VALUE_TYPE: inhibition

Here is how some compounds turned out for inhibition.
COMPOUND	inhibition
O=C1C(=O)c2cccc3c2C(=C1Cl)OC=C3Cc1ccccc1	Active
O=C1C=C2OCC(O)(Cc3ccccc3)c3cccc(c32)C1=O (stereo unspecified)	Active
C=CCC1(O)COC2=C(Cl)C(=O)C(=O)c3cccc1c32 (stereo unspecified)	Active
CCCC1=COC2=C(Cl)C(=O)C(=O)c3cccc1c32	Active
O=C1C=C2OC=C(Cc3ccccc3)c3cccc(c32)C1=O	Active

Lookup: Sample CC1(O)COC2=C(Cl)C(=O)C(=O)c3cccc1c32 (stereo unspecified) — what was its inhibition?
Found: Active

Lookup: For `CC1=COC2=C(C)C(=O)C(=O)c3c(C)ccc1c32` then?
Found: Active

----------
target: DNA topoisomerase 1 (Homo sapiens) (UniProt P11387); assay: Inhibition of human topoisomerase 1-mediated relaxation of supercoiled pBR322 DNA at 250 uM after 30 mins by agarose gel electrophoresis
Active and inactive are the calls of the source. The rule behind the calls is not given here.
Parameter call: string, one of y for active, n for inactive

Example entries and their recorded answers appear below.
MOLECULE	CLASS_LABEL
O=C1C=C2OCC(O)(c3ccc(F)cc3)c3cccc(c32)C1=O (centres undefined)	y
O=C1C(=O)c2cccc3c2C(=C1Cl)OC=C3c1ccc(F)cc1	y

Lookup: Given `C=CCC1=COC2=C(Cl)C(=O)C(=O)c3cccc1c32` , state the outcome it received in this test.
Found: y

Lookup: For CC1COC2=CC(=O)C(=O)c3cccc1c32 (centres undefined) then?
Found: n
